assay: Single oral 90-mg dose plasma PK in participants with chronic hepatic impairment and matched healthy participants; assay type: in vivo, human; settings: human, plasma, po, 90 mg, unbound; single oral 90 mg; mild (Child-Pugh A) (n=6); read-out: AUC0−∞,u, geometric mean (geometric %CV)
experimental.endpoint: AUC(0-inf) (ng·h/mL)

- COc1cc(N2CCC(N3CCN(C)CC3)CC2)ccc1Nc1ncc(Cl)c(Nc2ccccc2P(C)(C)=O)n1: 539

* * *

assay: Single oral 90-mg dose plasma PK in participants with chronic hepatic impairment and matched healthy participants; format: in vivo, human; settings: human, plasma, po, 90 mg, unbound; single oral 90 mg; severe (Child-Pugh C) (n=6); read-out: AUC0−∞,u, geometric mean (geometric %CV)
experimental.endpoint: AUC(0-inf) (ng·h/mL)

* COc1cc(N2CCC(N3CCN(C)CC3)CC2)ccc1Nc1ncc(Cl)c(Nc2ccccc2P(C)(C)=O)n1 | 829

* * *

assay: Plasma protein binding of brigatinib by rapid equilibrium dialysis of participants' plasma samples; format: in vitro ADME, human; settings: human, plasma, oral, 90 mg, Child-Pugh B; pooled 2, 8, 24 h postdose; read-out: pooled mean ± SD fraction unbound (converted)
experimental.endpoint: fraction unbound

• COc1cc(N2CCC(N3CCN(C)CC3)CC2)ccc1Nc1ncc(Cl)c(Nc2ccccc2P(C)(C)=O)n1 [brigatinib] = 0.108

* * *

assay: Single oral 90-mg dose plasma PK in participants with chronic hepatic impairment and matched healthy participants; format: in vivo, human; conditions: human, plasma, po, 90 mg, unbound; single oral 90 mg; normal hepatic function (n=9); read-out: AUC0−last,u, geometric mean (geometric %CV)
experimental.endpoint: AUC(0-t) (ng·h/mL)

• COc1cc(N2CCC(N3CCN(C)CC3)CC2)ccc1Nc1ncc(Cl)c(Nc2ccccc2P(C)(C)=O)n1 = 581

* * *

assay: Single oral 90-mg dose plasma PK in participants with chronic hepatic impairment and matched healthy participants; assay type: in vivo, human; conditions: human, plasma, po, 90 mg, single oral 90 mg, fasted; severe (Child-Pugh C) hepatic impairment (n=6); read-out: Tmax, median (range)
experimental.endpoint: Tmax (min)

* COc1cc(N2CCC(N3CCN(C)CC3)CC2)ccc1Nc1ncc(Cl)c(Nc2ccccc2P(C)(C)=O)n1 | 30

* * *

Assay: Single oral 90-mg dose plasma PK in participants with chronic hepatic impairment and matched healthy participants
Assay type: in vivo, human
Details: human, plasma, po, 90 mg, single oral 90 mg; mild (Child-Pugh A) (n=6); read-out: t1/2, terminal elimination half-life, geometric mean (geometric %CV) (converted)
Method: This open-label, parallel-group, inpatient, nonrandomized study was performed at 1 clinical study site, the Orlando Clinical Research Center (Orlando, FL, USA), and evaluated the PK of brigatinib after administration of a single oral 90-mg dose in participants with chronic hepatic impairment and in healthy participants with normal hepatic function. […]
experimental.endpoint: half-life (h)

• COc1cc(N2CCC(N3CCN(C)CC3)CC2)ccc1Nc1ncc(Cl)c(Nc2ccccc2P(C)(C)=O)n1 = 47

* * *

assay: Plasma protein binding of brigatinib by rapid equilibrium dialysis of participants' plasma samples; type: in vitro ADME, human; conditions: human, plasma, oral, 90 mg, Child-Pugh C; pooled 2, 8, 24 h postdose; read-out: pooled mean ± SD fraction unbound (converted)
experimental.endpoint: fraction unbound

* COc1cc(N2CCC(N3CCN(C)CC3)CC2)ccc1Nc1ncc(Cl)c(Nc2ccccc2P(C)(C)=O)n1 [brigatinib] | 0.231
